Source of measurements: patent US8288552B2

# target_under_test: P2X7 (UniProt Q99572)
# Sequence (Q99572 1-595): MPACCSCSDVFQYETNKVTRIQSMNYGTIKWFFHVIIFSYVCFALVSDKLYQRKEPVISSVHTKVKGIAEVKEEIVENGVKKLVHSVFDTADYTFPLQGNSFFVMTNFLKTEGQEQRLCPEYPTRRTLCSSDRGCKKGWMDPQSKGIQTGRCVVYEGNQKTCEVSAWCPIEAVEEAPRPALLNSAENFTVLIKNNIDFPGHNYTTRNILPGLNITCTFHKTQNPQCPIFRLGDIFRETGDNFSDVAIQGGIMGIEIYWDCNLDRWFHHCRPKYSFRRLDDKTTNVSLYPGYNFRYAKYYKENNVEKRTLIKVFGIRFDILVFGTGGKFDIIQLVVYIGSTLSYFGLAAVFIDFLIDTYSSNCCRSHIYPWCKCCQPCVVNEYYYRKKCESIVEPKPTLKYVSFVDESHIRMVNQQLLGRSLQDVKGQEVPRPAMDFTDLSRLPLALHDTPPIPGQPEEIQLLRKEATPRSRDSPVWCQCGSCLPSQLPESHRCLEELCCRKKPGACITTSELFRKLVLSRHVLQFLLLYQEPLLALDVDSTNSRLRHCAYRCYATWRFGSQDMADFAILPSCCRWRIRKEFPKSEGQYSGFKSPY
# test_protocol: P2X7 pKi of Table 1
# Format: cell-based
Measured pKi accompanies every entry in the list below.
recorded_endpoint: pKi

[
  {
    "compound": "Cc1ccc(C)c(NC(=O)C2=CNC(=O)C[C@@H]2c2ccc(F)cc2)c1",
    "recorded_endpoint": "pKi",
    "recorded_result": 7.535
  },
  {
    "compound": "Cc1ccc(C(C)O)cc1NC(=O)C1=CNC(=O)C[C@H]1c1ccc(F)cc1 (stereo partly shown)",
    "recorded_endpoint": "pKi",
    "recorded_result": 7.59
  },
  {
    "compound": "Cc1c(CO)cccc1NC(=O)C1=CNC(=O)C[C@@H]1c1ccc(F)cc1",
    "recorded_endpoint": "pKi",
    "recorded_result": 5.36
  },
  {
    "compound": "COc1cc(C)c(NC(=O)C2=CNC(=O)C[C@H]2c2cccc(F)c2)cc1OC",
    "recorded_endpoint": "pKi",
    "recorded_result": 7.7225
  }
]

---

# target_under_test: P2X7 (UniProt Q99572)
# Sequence (Q99572 1-595): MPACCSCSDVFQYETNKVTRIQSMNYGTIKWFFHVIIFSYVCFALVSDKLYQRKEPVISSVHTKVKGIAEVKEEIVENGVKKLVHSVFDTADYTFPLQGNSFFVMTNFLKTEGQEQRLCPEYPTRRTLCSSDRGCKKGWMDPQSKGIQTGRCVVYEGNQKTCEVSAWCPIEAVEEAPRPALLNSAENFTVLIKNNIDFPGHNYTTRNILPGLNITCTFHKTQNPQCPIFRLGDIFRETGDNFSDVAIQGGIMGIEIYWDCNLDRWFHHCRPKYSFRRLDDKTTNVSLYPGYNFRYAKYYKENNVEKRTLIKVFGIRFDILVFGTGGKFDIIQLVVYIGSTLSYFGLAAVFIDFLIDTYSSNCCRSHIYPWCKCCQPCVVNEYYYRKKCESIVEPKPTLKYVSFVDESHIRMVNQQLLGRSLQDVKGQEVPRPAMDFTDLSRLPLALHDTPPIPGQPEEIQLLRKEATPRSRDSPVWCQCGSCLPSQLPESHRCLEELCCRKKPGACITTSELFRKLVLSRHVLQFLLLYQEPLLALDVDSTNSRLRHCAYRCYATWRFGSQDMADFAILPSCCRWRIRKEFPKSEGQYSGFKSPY
# test_protocol: P2X7 pKi of Table 1
# Type: cell-based

[
  {
    "compound": "Cc1ccc(C(N)=O)cc1NC(=O)C1=CNC(=O)C[C@H]1c1ccc(F)cc1",
    "pKi": 5.8767
  },
  {
    "compound": "O=C1CC(c2cccc(F)c2)C(C(=O)Nc2c(F)cc(F)cc2Cl)=CN1 (centres unmarked)",
    "pKi": 5.215
  },
  {
    "compound": "COc1cc(NC(=O)C2=CNC(=O)CC2c2cccc(F)c2)c(Cl)cc1Cl (centres unmarked)",
    "pKi": 6.12
  },
  {
    "compound": "CCc1cc(Cl)c(OCCO)cc1NC(=O)C1=CNC(=O)C[C@H]1c1ccc(F)cc1",
    "pKi": 7.293
  },
  {
    "compound": "Cc1cccc(NC(=O)C2=CNC(=O)C[C@H]2c2ccc(F)cc2)c1Cl",
    "pKi": 7.44
  },
  {
    "compound": "Cc1ccc(Br)c(NC(=O)C2=CNC(=O)CC2c2ccc(F)cc2)c1 (centres unmarked)",
    "pKi": 6.87
  },
  {
    "compound": "COc1cc(C)c(NC(=O)C2=CNC(=O)CC2c2ccc(Cl)cc2)cc1OC (centres unmarked)",
    "pKi": 6.465
  },
  {
    "compound": "COc1cc(Br)c(NC(=O)C2=CNC(=O)C[C@H]2c2ccc(F)cc2)cc1OC",
    "pKi": 7.895
  }
]

---

Measured pKi accompanies every entry in the list below.
# target_under_test: P2X7 (UniProt Q99572)
# test_protocol: P2X7 pKi of Table 1
# Assay type: cell-based
# Method: Intracellular Calcium Flux (FLIPR) Assay Compound and Reagent Preparation Stock solutions of compounds were prepared from powders as a 10 mM DMSO stock solution. These solutions were stored at RT during the two week period of these experiments to prevent freeze-thaw of the DMSO stocks. The DMSO stocks were added to the appropriate assay buffer at a concentration of 10 μM, and then diluted serially to the final concentrations that were tested. […]

[
  {
    "compound": "CCc1c(NC(=O)C2=CNC(=O)CC2c2ccc(F)cc2)cccc1OC (centres unmarked)",
    "target_under_test": "P2X7 (UniProt Q99572)",
    "pKi": 7.316
  },
  {
    "compound": "COc1cc(C)c(NC(=O)C2=C(C)NC(=O)CC2c2ccc(F)cc2)cc1OC (centres unmarked)",
    "target_under_test": "P2X7 (UniProt Q99572)",
    "pKi": 6.48
  },
  {
    "compound": "Cc1cc(Cl)c(OCCO)cc1NC(=O)C1=CNC(=O)C[C@@H]1c1cccc(F)c1",
    "target_under_test": "P2X7 (UniProt Q99572)",
    "pKi": 6.815
  },
  {
    "compound": "COc1cc(Br)c(NC(=O)C2=CNC(=O)C[C@H]2c2ccccc2)cc1OC",
    "target_under_test": "P2X7 (UniProt Q99572)",
    "pKi": 7.455
  },
  {
    "compound": "Cc1cc(Cl)c(OCC(C)O)cc1NC(=O)C1=CNC(=O)C[C@H]1c1cccc(F)c1 (some centres unmarked) [Compound 117]",
    "target_under_test": "P2X7 (UniProt Q99572)",
    "pKi": 7.06
  },
  {
    "compound": "COc1cc(NC(=O)C2=CNC(=O)CC2c2cccc(F)c2)c(Br)cc1Cl (centres unmarked)",
    "target_under_test": "P2X7 (UniProt Q99572)",
    "pKi": 6.766
  },
  {
    "compound": "Cc1cc(F)c(OCCO)cc1NC(=O)C1=CN(C)C(=O)C[C@H]1c1ccc(F)cc1",
    "target_under_test": "P2X7 (UniProt Q99572)",
    "pKi": 6.535
  },
  {
    "compound": "COc1cc(NC(=O)C2=CNC(=O)C[C@H]2c2cccc(F)c2)c(Br)cc1C",
    "target_under_test": "P2X7 (UniProt Q99572)",
    "pKi": 7.195
  }
]

---

# target_under_test: P2X7 (UniProt Q99572)
# test_protocol: P2X7 pKi of Table 1
# Assay type: cell-based

[
  {
    "compound": "COc1ccc(C)c(NC(=O)C2=CNC(=O)C[C@@H]2c2cccc(F)c2)c1 [Compound 45]",
    "pKi": 6.765
  },
  {
    "compound": "COC(=O)c1ccc(C)c(NC(=O)C2=CNC(=O)CC2c2cccc(F)c2)c1 (stereo not drawn) [Compound 16]",
    "pKi": 6.43
  },
  {
    "compound": "Cc1c(NC(=O)C2=CNC(=O)C[C@H]2c2ccc(F)cc2)cccc1C(=O)N(C)C [Compound 110]",
    "pKi": 5.43
  },
  {
    "compound": "CCOc1cc(NC(=O)C2=CNC(=O)CC2c2cccc(F)c2)c(C)cc1Cl (stereo not drawn) [Compound 70]",
    "pKi": 7.425
  },
  {
    "compound": "Cc1ccc(C(C)C)cc1NC(=O)C1=CNC(=O)CC1c1cccc(F)c1 (stereo not drawn) [Compound 51]",
    "pKi": 7.445
  },
  {
    "compound": "COc1cc(NC(=O)C2=CNC(=O)C[C@@H]2c2cccc(F)c2)c(Br)cc1C [Compound 29]",
    "pKi": 6.405
  },
  {
    "compound": "O=C1CC(c2cccc(F)c2)C(C(=O)Nc2cc3c(cc2Cl)OC(F)(F)O3)=CN1 (stereo not drawn) [Compound 137]",
    "pKi": 4.98
  },
  {
    "compound": "COc1ccc(C)c(NC(=O)C2=CNC(=O)CC2c2cccc(F)c2)c1 (stereo not drawn) [Compound 20]",
    "pKi": 6.815
  },
  {
    "compound": "Cc1c(Cl)cccc1NC(=O)C1=CNC(=O)C[C@H]1c1cccc(F)c1 [Compound 88]",
    "pKi": 7.915
  },
  {
    "compound": "COc1cc(C)c(NC(=O)C2=CNC(=O)C[C@@H]2c2ccc(F)cc2)cc1OC [Compound 41]",
    "pKi": 7.225
  },
  {
    "compound": "Cc1cc(Cl)c(CN(CCO)CCO)cc1NC(=O)C1=CNC(=O)C[C@H]1c1ccc(F)cc1 [Compound 124]",
    "pKi": 6.75
  },
  {
    "compound": "COc1cc(NC(=O)C2=CNC(=O)CC2c2ccccc2)c(Br)cc1C (stereo not drawn) [Compound 2]",
    "pKi": 6.595
  },
  {
    "compound": "Cc1ccc(C)c(NC(=O)C2=CNC(=O)C[C@H]2c2ccc(F)cc2)c1 [Compound 56]",
    "pKi": 6.56
  },
  {
    "compound": "Cc1cc(Cl)c(OCCO)cc1NC(=O)C1=CNC(=O)CC1c1ccc(F)cc1 (stereo not drawn) [Compound 61]",
    "pKi": 7.755
  },
  {
    "compound": "COc1cc(NC(=O)C2=CNC(=O)CC2c2ccc(F)cc2)c(Br)cc1Cl (stereo not drawn) [Compound 6]",
    "pKi": 6.166
  },
  {
    "compound": "COc1cc(NC(=O)C2=CNC(=O)CC2c2ccc(F)cc2)ccc1Cl (stereo not drawn) [Compound 10]",
    "pKi": 5.543
  },
  {
    "compound": "COc1cc(Br)c(NC(=O)C2=CNC(=O)C[C@@H]2c2ccc(F)cc2)cc1OC [Compound 39]",
    "pKi": 6.99
  },
  {
    "compound": "CC(=O)COc1cc(NC(=O)C2=CNC(=O)C[C@H]2c2cccc(F)c2)c(C)cc1F [Compound 85]",
    "pKi": 6.705
  }
]
